Target: Cannabinoid receptor 1 (Homo sapiens, UniProt P21554)
Sequence (P21554 whole entry): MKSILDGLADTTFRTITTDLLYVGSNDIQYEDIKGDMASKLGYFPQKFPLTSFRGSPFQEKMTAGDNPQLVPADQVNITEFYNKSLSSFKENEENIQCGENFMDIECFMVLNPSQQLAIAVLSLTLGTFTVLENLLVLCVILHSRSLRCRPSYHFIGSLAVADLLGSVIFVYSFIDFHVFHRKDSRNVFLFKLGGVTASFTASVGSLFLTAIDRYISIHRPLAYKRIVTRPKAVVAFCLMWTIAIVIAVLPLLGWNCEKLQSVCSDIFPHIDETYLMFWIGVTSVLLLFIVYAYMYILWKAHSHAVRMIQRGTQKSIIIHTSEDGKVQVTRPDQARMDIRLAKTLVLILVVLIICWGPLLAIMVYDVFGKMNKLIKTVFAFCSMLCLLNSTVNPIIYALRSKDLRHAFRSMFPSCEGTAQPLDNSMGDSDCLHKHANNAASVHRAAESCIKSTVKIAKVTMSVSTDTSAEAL
Assay: Positive allosteric modulatory activity at human CB1 receptor expressed in CHO-K1 cells assessed as increase in CP55940-induced inhibition of forskolin-stimulated cAMP production preincubated for 30 mins […] by Hit-hunter assay
Assay type: functional, cell-based
pEC50: −log10 of the molar value.
Entries and their pEC50 values follow.

compound	target_under_test	pEC50
COc1cccc(C(C[N+](=O)[O-])c2c(-c3ccccc3)[nH]c3ccccc23)c1 (centres undefined)	Cannabinoid receptor 1 (Homo sapiens, UniProt P21554)	6.18
O=[N+]([O-])CC(c1ccccc1N1CCCC1)c1c(-c2ccccc2)[nH]c2ccccc12 (centres undefined)	Cannabinoid receptor 1 (Homo sapiens, UniProt P21554)	5.74
COc1ccc(C(C[N+](=O)[O-])c2c(-c3ccccc3)[nH]c3ccccc23)cc1 (centres undefined)	Cannabinoid receptor 1 (Homo sapiens, UniProt P21554)	5.93
Cc1ccc(C(C[N+](=O)[O-])c2c(-c3ccccc3)[nH]c3ccccc23)cc1 (centres undefined)	Cannabinoid receptor 1 (Homo sapiens, UniProt P21554)	5.84
O=[N+]([O-])CC(c1ccoc1)c1c(-c2ccccc2)[nH]c2ccccc12 (centres undefined)	Cannabinoid receptor 1 (Homo sapiens, UniProt P21554)	6.29
O=[N+]([O-])CC(c1ccsc1)c1c(-c2ccccc2)[nH]c2ccccc12 (centres undefined)	Cannabinoid receptor 1 (Homo sapiens, UniProt P21554)	6.92
CC(C)(C)c1ccc(C(C[N+](=O)[O-])c2c(-c3ccccc3)[nH]c3ccccc23)cc1 (centres undefined)	Cannabinoid receptor 1 (Homo sapiens, UniProt P21554)	6.69
O=[N+]([O-])CC(c1ccc(Cl)cc1)c1c(-c2ccccc2)[nH]c2ccccc12 (centres undefined)	Cannabinoid receptor 1 (Homo sapiens, UniProt P21554)	5.88
O=[N+]([O-])CC(c1ccco1)c1c(-c2ccccc2)[nH]c2ccccc12 (centres undefined)	Cannabinoid receptor 1 (Homo sapiens, UniProt P21554)	6.61

* * *

Target: Cannabinoid receptor 1 (Homo sapiens, UniProt P21554)
Assay: Positive allosteric modulatory activity at human CB1 receptor expressed in CHO-K1 cells assessed as increase in CP55940-induced beta-arrestin recruitment […] and measured after 60 mins by PathHunter assay
Format: cell-based
pEC50: −log10 of the molar value.

molecule	pEC50
Cc1cccc(C(C[N+](=O)[O-])c2c(-c3ccccc3)[nH]c3ccccc23)c1 (centres undefined)	5.70
Cc1ccc2c(C(C[N+](=O)[O-])c3nccs3)c(-c3ccccc3)[nH]c2c1 (centres undefined)	6.79
O=[N+]([O-])CC(c1c(-c2ccccc2)[nH]c2ccccc12)C1CCCCC1 (centres undefined)	5.72
O=[N+]([O-])CC(c1cccc(Cl)c1)c1c(-c2ccccc2)[nH]c2ccccc12 (centres undefined)	5.53
O=[N+]([O-])CC(c1ccc(N2CCCCC2)cc1)c1c(-c2ccccc2)[nH]c2ccccc12 (centres undefined)	5.61

* * *

Molecular target: Cannabinoid receptor 1 (Homo sapiens, UniProt P21554)
Assay: Positive allosteric modulatory activity at human CB1 receptor expressed in CHO-K1 cells assessed as increase in CP55940-induced inhibition of forskolin-stimulated cAMP production preincubated for 30 mins […] by Hit-hunter assay
Assay type: functional, cell-based
Entries and their EC50 values follow.

compound	target_under_test	EC50
O=[N+]([O-])CC(c1ccc(C(F)(F)F)cc1)c1c(-c2ccccc2)[nH]c2ccccc12 (stereo not drawn)	Cannabinoid receptor 1 (Homo sapiens, UniProt P21554)	> 10 µM
Cn1cnc(C(C[N+](=O)[O-])c2c(-c3ccccc3)[nH]c3ccccc23)c1 (stereo not drawn)	Cannabinoid receptor 1 (Homo sapiens, UniProt P21554)	> 10 µM
O=[N+]([O-])CC(c1ccc(N2CCOCC2)cc1)c1c(-c2ccccc2)[nH]c2ccccc12 (stereo not drawn)	Cannabinoid receptor 1 (Homo sapiens, UniProt P21554)	> 10 µM

* * *

Molecular target: Cannabinoid receptor 1 (Homo sapiens, UniProt P21554)
Assay: Positive allosteric modulatory activity at human CB1 receptor expressed in CHO-K1 cells assessed as increase in CP55940-induced inhibition of forskolin-stimulated cAMP production preincubated for 30 mins […] by Hit-hunter assay
Type: functional, cell-based
experimental_endpoint: EC50

compound	reported_measurement
O=[N+]([O-])CC(c1ccc(-c2ccccc2)cc1)c1c(-c2ccccc2)[nH]c2ccccc12 (stereo not drawn)	> 10 µM
Cn1cncc1C(C[N+](=O)[O-])c1c(-c2ccccc2)[nH]c2ccccc12 (stereo not drawn)	> 10 µM
O=[N+]([O-])CC(c1cccc2ccccc12)c1c(-c2ccccc2)[nH]c2ccccc12 (stereo not drawn)	> 10 µM

* * *

Entries and their pEC50 values follow.
Biological target: UniProt P21554
Assay: Positive allosteric modulatory activity at human CB1 receptor expressed in CHO-K1 cells assessed as increase in CP55940-induced beta-arrestin recruitment […] and measured after 60 mins by PathHunter assay
Type: cell-based
pEC50: −log10 of the molar value.

molecule	pEC50
O=[N+]([O-])CC(c1ccoc1)c1c(-c2ccccc2)[nH]c2ccccc12 (centres undefined)	< 5.00
O=[N+]([O-])CC(c1ccc(Cl)cc1)c1c(-c2ccccc2)[nH]c2ccccc12 (centres undefined)	< 5.00
CC(C)(C)c1ccc(C(C[N+](=O)[O-])c2c(-c3ccccc3)[nH]c3ccccc23)cc1 (centres undefined)	< 5.00
Cc1ccc(C(C[N+](=O)[O-])c2c(-c3ccccc3)[nH]c3ccccc23)cc1 (centres undefined)	< 5.00
